System: COLO 205 colon
Assay: NCI tumour cell line growth inhibition, 48 h
Reported Metric: TGI

Molecule	Reported Metric	Obs Value
COc1ncnc2c(-c3ccco3)cn(COCc3ccccc3)c12	TGI	> 50 µM
COc1cc(C2c3cc4c(cc3[C@@H](Nc3cccc(O)c3)C3COC(=O)[C@H]23)OCO4)cc(OC)c1O (some centres undefined)	TGI	23.1 µM
CC(=O)Nc1ccc(C(=O)N2N=C(C)/C(=C/c3cccc(O)c3)C2=O)cc1	TGI	> 100 µM
CC[C@@]1(OC(=O)CN(C)C)C(=O)OCc2c1cc1n(c2=O)Cc2cc3ccccc3nc2-1	TGI	6.3 µM
COC(=O)c1ccc(OCc2ccc3nc(-c4ccccc4)c(Cl)nc3c2)cc1	TGI	> 100 µM
Cc1ccc(C2=Nn3c(nc4sc(-c5ccccc5)cc4c3=O)SC2)cc1	TGI	> 100 µM
C=CCN1C(=O)/C(=C/c2ccc(Cl)cc2)N=C1SC1OC(COC(C)=O)C(OC(C)=O)C(OC(C)=O)C1OC(C)=O (centres undefined)	TGI	> 100 µM
COc1ccc(N(Cc2cc(OC)c(OC)c(OC)c2)C2OC(=O)c3ccccc32)cc1 (centres undefined)	TGI	5.77 µM
O=C(NCCCCl)c1c(O)c2ccccc2[nH]c1=O	TGI	> 100 µM

====

System: SF-539 CNS
Test: NCI tumour cell line growth inhibition, 48 h; in the data active means GI50 below about 0.43 µM; inactive means the rest
Outcome codes: 1 (active), 0 (inactive)

Compound	Label
CCCCCCCCCCCCNC(=O)[C@H]1CSC(c2ccc(OC)c(F)c2)N1 (some centres undefined)	0
COc1cc(C(=O)N/N=C/c2cccc([N+](=O)[O-])c2)cc(OC)c1OC	0
O=C(NO)C(O)C(O)C(O)C(O)CO (centres undefined)	0
CC(C)(C)c1ccc(S(=O)(=O)N[C@H]2CC[C@H]3[C@@H]4CCc5cc(O)ccc5[C@H]4CC[C@]23C)cc1	0
O=[N+]([O-])c1cccc(-c2ncc(-c3ccc(Cl)cc3Cl)[nH]2)c1	0
COc1cc(C2c3cc4c(cc3[C@@H](Nc3cccc(O)c3)C3COC(=O)[C@H]23)OCO4)cc(OC)c1O (some centres undefined)	0
O=c1c2cc(F)ccc2sc2c(NCCCN3CCCC3)nc3ccccc3c12	0
COc1cc(C(=O)/C=C/c2c(C(F)(F)F)nc3sccn23)cc(OC)c1OC	0
COc1ccc(N=C2NN=C(c3c[nH]c4ccccc34)CS2)cc1OC	0
O=c1[nH]c2cc(O)ccc2n2cc3c(F)cccc3c12	0
CCCCCCCCCCCCCCCC(=O)N[C@H]1CCc2cc(OC)c(OC)c(OC)c2-c2ccc(SC)c(=O)cc21	0
CC(=O)N[C@@H]1CCC[C@H](C(=O)Nc2cc(-c3cnn4c3CC(C)(C)C4)c(Cl)cn2)C1	1
C=CC[PH+](c1ccccc1)c1ccccc1.C=CC[PH+](c1ccccc1)c1ccccc1.[Cl][Pt][Cl]	0
CC[C@@]1(O)C(=O)OCc2c1cc1n(c2=O)Cc2cc3c(NC(C)=O)c(O)ccc3nc2-1	1
CC1(C)CC2(C)OC2C2(C1)N=NC(=Nc1ccccc1)O2 (centres undefined)	0
CCCCCCCCCCCCCCCCCC1=NC(C)(C)CN1CCO	0
COc1cc(/C=C\c2cccnc2Nc2ccccc2)cc(OC)c1OC	0
Cc1ccc(OCCCCCCNCCO)c(C)c1	0
Nc1ncnc2c1ncn2Cc1ccc(C23CC4CC(CC(C4)C2)C3)c(O)c1	0

====

System: PC-3 prostate
Experiment: NCI tumour cell line growth inhibition, 48 h

Molecule	Value Modifier	TGI, µM
CCSc1nc(N)c2cnn(C)c2n1	>	100
COc1cc(C(=O)/C=C/c2c(C(F)(F)F)nc3sccn23)cc(OC)c1OC	=	8.69
CNC(=O)OCC1=C(COC(=O)NC)CN(c2ccccc2)C1	>	100
Cn1cc(-c2nn3cc(-c4cccs4)nc3s2)c2cc(F)ccc21	>	100
CCC1(N2C(=O)c3c(F)c(F)c(F)c(F)c3C2=O)C(=O)NC(=O)N(c2ccccc2)C1=O (stereo unspecified)	=	16
Cc1ccc(S(=O)(=O)NC(=O)NS(=O)(=O)O)cc1	>	100
O=C(Nc1ccccc1)N1N=C(c2ccccc2)C1c1ccccc1 (stereo unspecified)	=	35.3
c1csc(-c2ccc(-c3ccc(-c4cccs4)s3)s2)c1	>	100
CC(=O)Nc1ccc(-n2cnc3cc(-c4ccc(OCCN5CCCCC5)cc4)ccc32)cc1	=	9.83
N#Cc1ccc(N2Cc3cc(Cl)ccc3OC3=C2C(=O)N(Cc2ccccc2)C3=O)cc1	=	3.52
Cc1ccc(C2=Nn3c(nc4sc(-c5ccccc5)cc4c3=O)SC2)cc1	>	100

====

Test system: CAKI-1 renal
Assay: NCI tumour cell line growth inhibition, 48 h
Reported Metric: TGI

Molecule	Reported Metric	Obs Value
C=CC[PH+](c1ccccc1)c1ccccc1.C=CC[PH+](c1ccccc1)c1ccccc1.[Cl][Pt][Cl]	TGI	22.7 µM
Cc1csc(Nc2nc(-c3cccc(Cl)c3)nc(C(Cl)(Cl)Cl)n2)n1	TGI	> 33.3 µM
Cc1cccc(CC(C)(C)C)c1NC(=O)C(=O)C(C(=O)c1ccc2ccccc2c1)C1OC(=O)c2ccccc21 (stereo unspecified)	TGI	> 100 µM
CN1C(=O)[C@@]2(C=CC3(CC2)OCCO3)c2ccccc21	TGI	> 50 µM
C=C(CC1(CC(=C)c2ccc(C(=O)O)cc2)C(=O)N(C)C(=O)N(C)C1=O)c1ccc(C(=O)O)cc1	TGI	> 100 µM
COC1=CC2(C=CC1=O)CCN=c1c(O)c3c(c(O)c12)=NC=N3 (stereo unspecified)	TGI	> 100 µM
Fc1nc(F)nc(-c2c3ccccc3c3n2CCS3)n1	TGI	> 100 µM
Cc1nc(C(N)=S)sc1C(=O)CC(=O)C(=O)Nc1cccc(Cl)c1C	TGI	> 100 µM
O=[N+]([O-])c1cccc(-c2ncc(-c3ccc(Cl)cc3Cl)[nH]2)c1	TGI	4.71 µM
Cn1c(=O)c2[nH]c(N/N=C3/SCC(=O)N3Cc3ccccc3)nc2n(C)c1=O	TGI	> 100 µM
Cc1[nH]c(=O)nc(N/N=C/c2ccc(O)cc2)c1C(=O)Nc1ccc(Cl)cc1	TGI	> 100 µM
CC(C)(C)NCCC(O)c1cc(C(F)(F)F)nc2c(C(F)(F)F)cccc12 (stereo unspecified)	TGI	9.97 µM
COc1cc(OC)c(/C=C/S(=O)(=O)Cc2ccc(OC)c(NCC(=O)O)c2)c(OC)c1	TGI	> 100 µM
Cn1cc(-c2nn3cc(-c4cccs4)nc3s2)c2cc(F)ccc21	TGI	57.4 µM
CCOC(=O)NNC(=O)NC12CC3CC(CC(C3)C1)C2	TGI	> 100 µM
C[C@H](NC(=O)CCC(F)(F)F)C(=O)N[C@@H]1C(=O)N(CCO)c2ncccc2-c2ccccc21	TGI	> 100 µM
CN(C)CCNC(=O)c1cccc2c(NC(CS)C(=O)O)c3ccccc3nc12 (stereo unspecified)	TGI	57.1 µM
CCOC(=O)Cc1csc(NC(=O)C(OC(=O)c2ccc(N)cc2)c2ccccc2)n1 (stereo unspecified)	TGI	> 100 µM
O=[N+]([O-])O.[NH-]C1CCCCC1[NH-].[NH-]C1CCCCC1[NH-].[NH-]C1CCCCC1[NH-].[OH-].[OH-].[OH-].[Pt+4].[Pt+4].[Pt+4] (stereo unspecified)	TGI	9.33 µM
COCCCN1C(=O)C2c3[nH]c4ccccc4c3C3CCC(C(C)(C)C)CC3C2C1=O (stereo unspecified)	TGI	55 µM
CCC1NCC(=O)c2c1[nH]c1ccccc21 (stereo unspecified)	TGI	> 100 µM
c1ccc(C/C(=N\Nc2nc3ccccc3o2)c2ccccn2)cc1	TGI	0.654 µM
CCSc1nc(N)c2cnn(C)c2n1	TGI	> 100 µM
CCN(CC)c1ccc(C(=C2C=CC(=[N+](CC)CC)C=C2)c2ccccc2)cc1	TGI	0.504 µM
COC1C(CO)OC(n2c3ccccc3c3c4c(c5c6ccccc6[nH]c5c32)C(=O)NC4=O)C(O)C1OC(=O)C(N)CCCCN (stereo unspecified)	TGI	11.7 µM
O=C(O)c1ccccc1-c1ccccc1C(=O)c1ccccc1	TGI	> 100 µM
CC1(C)CC2(C)OC2C2(C1)N=NC(=Nc1ccccc1)O2 (stereo unspecified)	TGI	12.5 µM
O=C(NO)C(O)C(O)C(O)C(O)CO (stereo unspecified)	TGI	> 100 µM
Cc1cccc(N2C(=O)/C(=C/c3ccc(N(CCC#N)CCC#N)cc3C)N=C2c2cc([N+](=O)[O-])ccc2Cl)c1	TGI	> 100 µM
CCOc1cc(C=O)ccc1O	TGI	> 100 µM
C#Cc1ccc(-n2c(/C=C/c3cc(OC)c(OC)c(OC)c3)nc3ncccc3c2=O)cc1	TGI	> 100 µM
CC[C@@]1(O)C(=O)OCc2c1cc1n(c2=O)Cc2cc3c(NC(C)=O)c(O)ccc3nc2-1	TGI	13.7 µM
CCOc1cccnc1/C=N/NC(N)=S	TGI	> 100 µM
CC(C)C[C@H](NC(=O)[C@@H](O)[C@H](N)Cc1ccccc1)C(=O)O	TGI	> 100 µM
COc1cc(C(=O)N/N=C/c2cccc([N+](=O)[O-])c2)cc(OC)c1OC	TGI	11.9 µM
COc1ncnc2c(-c3ccco3)cn(COCc3ccccc3)c12	TGI	> 50 µM
CCCCCCN(CCCCCC)CC(O)c1cccc2ccc(Cl)cc12 (stereo unspecified)	TGI	14.7 µM
CSc1nc(Br)nc2c1ncn2C1CC(Oc2ccc(C)cc2)C(COc2ccc(C)cc2)O1 (stereo unspecified)	TGI	> 100 µM
O=C(Nc1ccccc1)N1N=C(c2ccccc2)C1c1ccccc1 (stereo unspecified)	TGI	95.3 µM
N#CC1(C#N)C2C=CC(C3CCC=C32)C1(C#N)C#N (stereo unspecified)	TGI	> 10 µM
O=C(O)CCCc1nc2c(n1-c1ccccc1)C(=O)c1ccccc1C2=O	TGI	> 100 µM
